Quick list: inhibition of SARS-CoV-2 cytopathic effect per entry.
test system: Vero E6 infected with SARS-CoV-2; assay: inhibition of SARS-CoV-2 cytopathic effect; higher = more antiviral protection, active = above 15; settings: 8.33 nM; 48 h
Numeric only. Scale: %

COc1cc(NC(=O)c2ccc(-c3ccc(Cl)cc3)o2)cc(OC)c1 = 0.3
CN(C)CCOC(c1ccc(Cl)cc1)c1ccccn1 (stereo not drawn) = 1.53
CC[C@@H]1/C=C(\C)C[C@H](C)C[C@H](OC)[C@H]2O[C@@](O)(C(=O)C(=O)N3CCCC[C@H]3C(=O)O[C@H](/C(C)=C/[C@@H]3CC[C@@H](O)[C@H](OC)C3)[C@H](C)[C@@H](O)CC1=O)[C@H](C)C[C@@H]2OC = 2.65

[in] Give the reported inhibition of SARS-CoV-2 cytopathic effect for this compound. O=[N+]([O-])/N=C1\NCCN1Cc1ccc(Cl)nc1
[out] 5.02

[in] Kindly indicate its recorded inhibition of SARS-CoV-2 cytopathic effect. Item: CCC(=O)[C@@]1(C)[C@H](C)C[C@H]2[C@@H]3CCC4=CC(=O)C=C[C@]4(C)[C@H]3[C@@H](O)C[C@@]21C [rimexolone]
[out] -0.66

[in] Indicate its recorded inhibition of SARS-CoV-2 cytopathic effect; the compound in question is COc1cccc(OC)c1-c1cc(C(=O)N[C@@H](CC(C)C)C(=O)O)nn1-c1ccnc2cc(Cl)ccc12
[out] 1.4

[in] Hello, please tell me recorded inhibition of SARS-CoV-2 cytopathic effect for this one: CCCOc1ccc2[nH]cc(C3=CCNCC3)c2n1
[out] 1.38

[in] Tell us which inhibition of SARS-CoV-2 cytopathic effect value is on record for Cc1c(C)c(NCC(=O)N(C)C2CCN(Cc3ccc(C(N)=O)cc3)CC2)c(C)c(C)c1N
[out] -0.21

* * *

Overview of reported inhibition of SARS-CoV-2 cytopathic effect across a group of compounds:
system: Vero E6 infected with SARS-CoV-2; experiment: inhibition of SARS-CoV-2 cytopathic effect; higher = more antiviral protection, active = above 15; conditions: 10000 nM; 48 h
All answers are understood in %, so give the number only.

# annotated cases, reported inhibition of SARS-CoV-2 cytopathic effect shown
O=C(O)c1c(Cl)c(Cl)c(Cl)c(Cl)c1-c1c2cc(I)c(=O)c(I)c-2oc2c(I)c(O)c(I)cc12 = -13.9
O=C(Nc1ccc(Oc2ccc(Cl)cn2)c(Cl)c1)c1ccccn1 = 0.26
COc1cc(-c2cc(-c3cccc(O)c3)cnc2N)cc(OC)c1OC = 2.09
CCOC(=O)C1=C(COCCN)NC(C)=C(C(=O)OC)C1c1ccccc1Cl (stereo not given) = 1.18
CCCCCCCCCCCCCCCC[n+]1ccccc1 = -21.9

[in] Identify measured inhibition of SARS-CoV-2 cytopathic effect corresponding to Cn1c(NC[C@@H](N)Cc2ccccc2)nc(-c2ccncc2)c(-c2ccc3ccccc3c2)c1=O
[out] 32.9

[in] Tell me measured inhibition of SARS-CoV-2 cytopathic effect for Oc1ccc(Cl)c2c1CCC2 please.
[out] 4.12

[in] Identify measured inhibition of SARS-CoV-2 cytopathic effect associated with CC1(C)CCC(C)(C)c2cc(Cn3cccn3)c(/C=C/c3ccc(C(=O)O)cc3)cc21
[out] 2.48

[in] Name the recorded inhibition of SARS-CoV-2 cytopathic effect of the item CN1CC[C@@H]2CN3CCc4cccc(c43)[C@@H]2C1 in your answer.
[out] 1.24

[in] Answer with reported inhibition of SARS-CoV-2 cytopathic effect of CN1CCN(CCCCN2C(=O)CN(/N=C/c3ccc(-c4ccc(Cl)cc4)o3)C2=O)CC1 [azimilide]
[out] -1.08

[in] For the compound CCCS(=O)(=O)Nc1ccc(F)c(C(=O)c2c[nH]c3ncc(Cl)cc23)c1F , give its measured inhibition of SARS-CoV-2 cytopathic effect value.
[out] 1.71

* * *

tested on: Vero E6 infected with SARS-CoV-2; test: inhibition of SARS-CoV-2 cytopathic effect; higher = more antiviral protection, active = above 15; settings: 1 nM; 48 h
VALUE_KIND: inhibition of SARS-CoV-2 cytopathic effect (%)
// return numeric value only (unit: %, not printed)

As a guide, the following entries are already answered.
O=C1NCCN1c1ncc([N+](=O)[O-])s1 = 0.2
CCCC[N+]1(C)[C@@H]2C[C@@H](OC(=O)[C@H](CO)c3ccccc3)C[C@H]1[C@@H]1O[C@@H]12 (stereo partly specified) [butylscopolamine-bromide] = -2.47
COc1ccc([C@@H]2CC(=O)c3c(O)cc(O[C@@H]4O[C@H](CO)[C@@H](O)[C@H](O)[C@H]4O[C@@H]4O[C@@H](C)[C@H](O)[C@@H](O)[C@H]4O)cc3O2)cc1O = -2.2
NNC(=O)c1ccncc1 = -3.24
C[C@]12CC[C@H]3[C@@H](CCC4=CC(=O)CC[C@@H]43)[C@@H]1CC[C@@H]2O = -1.64
COC(=O)C1=C(C)NC(C)=C(C(=O)NCCCN2CCC(c3ccccc3)(c3ccccc3)CC2)C1c1ccc([N+](=O)[O-])cc1 (stereo unspecified) = 1.77

[in] Find the measured inhibition of SARS-CoV-2 cytopathic effect of N#C[C@@H]1C[C@@H]2C[C@@H]2N1C(=O)[C@@H](N)C12CC3CC(CC(O)(C3)C1)C2 and report it.
[out] -1.01

[in] Output inhibition of SARS-CoV-2 cytopathic effect of Cc1ccc(Sc2cncc3sc(C(N)=O)cc23)cc1
[out] -1.26

[in] Please give the documented inhibition of SARS-CoV-2 cytopathic effect of Cc1ccccc1/N=N/c1ccc(/N=N/c2c(O)ccc3ccccc23)c(C)c1
[out] 8.71

[in] Assign inhibition of SARS-CoV-2 cytopathic effect to the following record: CC(=O)N(O)[C@@H]1c2cc(C#N)ccc2OC(C)(C)[C@H]1O
[out] -2.54

[in] Report inhibition of SARS-CoV-2 cytopathic effect for Nc1nc(F)nc2c1ncn2[C@@H]1O[C@H](CO)[C@@H](O)[C@@H]1O
[out] -1.26

[in] Please indicate inhibition of SARS-CoV-2 cytopathic effect recorded for O=c1sn(-c2cccc3ccccc23)c(=O)n1Cc1ccccc1
[out] -1.59

[in] Recall and state the measured inhibition of SARS-CoV-2 cytopathic effect for CCOC(=O)c1c(C)[nH]c2ccc3c(c12)CN1CCc2cc(OC)ccc2C1O3 (stereo unspecified) .
[out] 3.34

[in] Return inhibition of SARS-CoV-2 cytopathic effect for the following compound: O=C(c1ccc(OCCN2CCCCC2)cc1)c1c(-c2ccc(O)cc2)sc2cc(O)ccc12
[out] 3.31

[in] Give a short answer stating reported inhibition of SARS-CoV-2 cytopathic effect for CCCCCCCCc1ccc(CCC(N)(CO)CO)cc1 .
[out] 0

[in] Answer with the recorded inhibition of SARS-CoV-2 cytopathic effect of O=c1ncn2nc(Sc3ccc(F)cc3F)ccc2c1-c1c(Cl)cccc1Cl only.
[out] 1.28

[in] Identify inhibition of SARS-CoV-2 cytopathic effect associated with the compound O=C(Nc1ccccc1F)N[C@H]1N=C(c2ccccc2)c2ccccc2NC1=O
[out] 0.66

* * *

tested on: Vero E6 infected with SARS-CoV-2; assay: inhibition of SARS-CoV-2 cytopathic effect; higher = more antiviral protection, active = above 15; settings: 833.33 nM; 48 h
VALUE_KIND: inhibition of SARS-CoV-2 cytopathic effect

Worked examples, 3 compounds total:
N#Cc1c[nH]c2c(C(=O)N3CCN(CCc4ccc(F)cc4)CC3)cccc12 [pruvanserin] = 1.31% (inactive)
Oc1ccc(Cl)c2cccnc12 [cloxyquin] = 3.29% (inactive)
CN(N=O)C(=O)N[C@@H](C=O)[C@@H](O)[C@H](O)[C@H](O)CO [streptozotocin] = 1% (inactive)

[in] Tell me inhibition of SARS-CoV-2 cytopathic effect reported for CNC(=O)c1c(C)oc2cc(Oc3ncnc4cc(OC)c(OC)cc34)ccc12 [fruquintinib]
[out] -3.32% (inactive)

[in] Check the records and state inhibition of SARS-CoV-2 cytopathic effect for CO[C@]12C[C@@H](COC(=O)c3cncc(Br)c3)CN(C)[C@@H]1Cc1cn(C)c3cccc2c13 [nicergoline]
[out] 0.48% (inactive)

[in] State its inhibition of SARS-CoV-2 cytopathic effect for this compound: N=C(N)NCc1cccc(I)c1 [iobenguane]
[out] 2.26% (inactive)

* * *

Let's look at some compounds and their measured inhibition of SARS-CoV-2 cytopathic effect.
tested on: Vero E6 infected with SARS-CoV-2; test: inhibition of SARS-CoV-2 cytopathic effect; higher = more antiviral protection, active = above 15; details: 100 nM; 48 h
Reply with just the number (in %).

Some solved entries appear below for comparison.
O=C(O)[C@H]1CCCN(CCC=C(c2ccccc2)c2ccccc2)C1 (racemic) = -2.13
CN1CCN(c2nc(C3=C(c4c[nH]c5ccccc45)C(=O)NC3=O)c3ccccc3n2)CC1 [sotrastaurin] = -0.57
COCCOC(=O)C1=C(C)NC(C)=C(C(=O)OC(C)C)C1c1cccc([N+](=O)[O-])c1 (centres undefined) [nimodipine] = -1

[in] Answer with the recorded inhibition of SARS-CoV-2 cytopathic effect of COc1ccc(-c2ccc3c(N4CCOC[C@@H]4C)nc(N4CCOC[C@@H]4C)nc3n2)cc1CO only.
[out] -3.62

[in] Annotate the compound COc1cc2c(cc1-c1c(C)noc1C)ncc1[nH]c(=O)n([C@H](C)c3ccccn3)c12 with its measured inhibition of SARS-CoV-2 cytopathic effect.
[out] -3.13

[in] Identify measured inhibition of SARS-CoV-2 cytopathic effect corresponding to Fc1ccc(-c2c3cccc(C(F)(F)F)c3nn2Cc2ccc(F)cc2Cl)cc1
[out] 2.69

[in] Give reported inhibition of SARS-CoV-2 cytopathic effect value for O=C(Cc1cccc(OC(F)(F)F)c1)Nc1ccc(CCCCc2nnc(NC(=O)Cc3ccccn3)s2)nn1
[out] -1.18

[in] # return recorded inhibition of SARS-CoV-2 cytopathic effect for input CCC1(c2ccc(N)cc2)CCC(=O)NC1=O (centres undefined) [aminoglutethimide]
[out] 3.28

[in] Tell me inhibition of SARS-CoV-2 cytopathic effect reported for NCCCCCC(=O)O [aminocaproic-acid]
[out] 1.68
